# Measurement Protocol: Cytotoxicity against mouse BMDM cells assessed as cell viability at 100 uM incubated for 24 hrs by MTT assay
# Assay type: toxicity, cell-based
# Test Conditions: BMDM cells (bone marrow-derived macrophages), read-out: Activity
Measured Attribute: viability at 24 h, 100 µM

{"Compound": "C=C[C@]1(C)CC[C@@H](C(=C)COC(=O)CCC(=O)OCCOc2ccc(-c3cc(=S)ss3)cc2)C[C@H]1C(=C)C", "Reading": "349%"}
{"Compound": "C=C[C@]1(C)CC[C@@H](C(=C)COC(=O)c2c(F)cccc2C(=O)OCCOc2ccc(-c3cc(=S)ss3)cc2)C[C@H]1C(=C)C", "Reading": "347%"}
{"Compound": "C=C[C@]1(C)CC[C@@H](C(=C)COCCCCOc2ccc(C(N)=S)cc2)C[C@H]1C(=C)C", "Reading": "14.9%"}
{"Compound": "C=C[C@]1(C)CC[C@@H](C(=C)COC(=O)CCCCCC(=O)Oc2ccc(-c3nc(=O)ss3)cc2)C[C@H]1C(=C)C", "Reading": "391%"}
{"Compound": "C=C[C@]1(C)CC[C@@H](C(=C)C)C[C@H]1C(=C)COC(=O)C(NC(=O)CCCCC1CCSS1)C(C)CC (stereo not given in full)", "Reading": "882%"}
{"Compound": "C=C[C@]1(C)CC[C@@H](C(=C)COCCCCCCCCOc2ccc(C(N)=S)cc2)C[C@H]1C(=C)C", "Reading": "27.1%"}
{"Compound": "C=C[C@]1(C)CC[C@@H](C(=C)COC(=O)CCCCCCC(=O)Oc2ccc(-c3cc(=S)ss3)cc2)C[C@H]1C(=C)C", "Reading": "202%"}
{"Compound": "C=C[C@]1(C)CC[C@@H](C(=C)CO)C[C@H]1C(=C)C", "Reading": "281%"}
{"Compound": "C=C[C@]1(C)CC[C@@H](C(=C)COC(=O)C(NC(=O)CCC(=O)OCCOc2ccc(-c3cc(=S)ss3)cc2)C(C)CC)C[C@H]1C(=C)C (stereo not given in full)", "Reading": "584%"}
{"Compound": "C=C[C@]1(C)CC[C@@H](C(=C)COC(=O)c2ccccc2C(=O)OCCOc2ccc(-c3cc(=S)ss3)cc2)C[C@H]1C(=C)C", "Reading": "454%"}
{"Compound": "C=C[C@]1(C)CC[C@@H](C(=C)COC(=O)/C=C\\C(=O)OCCOc2ccc(-c3cc(=S)ss3)cc2)C[C@H]1C(=C)C", "Reading": "89.7%"}
{"Compound": "C=C[C@]1(C)CC[C@@H](C(=C)COC(=O)CCCCCC(=O)Oc2ccc(C(N)=S)cc2)C[C@H]1C(=C)C", "Reading": "219%"}
{"Compound": "C=C[C@]1(C)CC[C@@H](C(=C)COCCCCCCOc2ccc(C(N)=S)cc2)C[C@H]1C(=C)C", "Reading": "17.1%"}
{"Compound": "C=C[C@]1(C)CC[C@@H](C(=C)COC(=O)CCCCC2CCSS2)C[C@H]1C(=C)C (stereo not given in full)", "Reading": "378%"}
{"Compound": "C=C[C@]1(C)CC[C@@H](C(=C)COC(=O)C(NC(=O)CCCCC2CCSS2)C(C)CC)C[C@H]1C(=C)C (stereo not given in full)", "Reading": "268%"}
{"Compound": "C=C[C@]1(C)CC[C@@H](C(=C)C)C[C@H]1C(=C)COC(=O)CCCCC1CCSS1 (stereo not given in full)", "Reading": "336%"}
{"Compound": "C=C[C@]1(C)CC[C@@H](C(=C)COC(=O)CCCCCC(=O)Oc2ccc(-c3cc(=S)ss3)cc2)C[C@H]1C(=C)C", "Reading": "459%"}
{"Compound": "C=C[C@]1(C)CC[C@@H](C(=C)C)C[C@H]1C(=C)COC(=O)C(NC(=O)CCC(=O)OCCOc1ccc(-c2cc(=S)ss2)cc1)C(C)CC (stereo not given in full)", "Reading": "272%"}
{"Compound": "C=C[C@]1(C)CC[C@@H](C(=C)C)C[C@H]1C(=C)COC(=O)CCC(=O)OCCOc1ccc(-c2cc(=S)ss2)cc1", "Reading": "262%"}
{"Compound": "C=C[C@]1(C)CC[C@@H](C(=C)COC(=O)CCC(=O)OCCOc2ccc(-c3nc(=O)ss3)cc2)C[C@H]1C(=C)C", "Reading": "254%"}
